test.system: human NKp30 (human) (UniProt O14931)
Sequence (O14931 19-135 limits assumed): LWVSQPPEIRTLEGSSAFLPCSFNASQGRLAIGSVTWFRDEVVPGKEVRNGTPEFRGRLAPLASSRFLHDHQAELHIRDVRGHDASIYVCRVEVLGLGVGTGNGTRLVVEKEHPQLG
experiment: BLI, ratio to ΔB7-H6_wt
Reported x-fold KD improvement values for the following binders.
Report the value in fold with no unit label.

ΔB7-H6_S3#15-SEED-PGLALA (bispecific antibody, part only; not given: SEED Fc chains and hu225 Fab, part only) chain, part: DLKVEMMAGGTQITPLNDNVTIFCNIFYSQPLNITIMGITWFWKSLTFDKEVKVFEFWGDHQEAFRPGAIVSPWRLKSGDASLRLPGIQLEEAGEYRCEVVVTPYKAQGTVQLEVVASPAS    33
ΔB7-H6_S2#3-SEED-PGLALA (bispecific antibody, part only; not given: SEED Fc chains and hu225 Fab, part only) chain, part: DLKVEMMAGGTQITPLNDNVTIFCNIFYSQPLNITTMGITWFWKSLTFDKEVKVFEFWGDHQEAFRPGAIVSPWRLKSGDASLRLPGIQLEEAGEYRCEVVVTPLKAQGTVQLEVVASPAS    2.1
ΔB7-H6_S3#25-SEED-PGLALA (bispecific antibody, part only; not given: SEED Fc chains and hu225 Fab, part only) chain, part: DLKVEMMAGGTQITPLNDNVTIFCNIFYSQPLNITWMGITWFWKSLTFDKEVKVFEFYGDHQEAFRPGAIVSPWRLKSGDASLRLPGIQLEEAGEYRCEVVVTPYKAQGTVQLEVVASPAS    6.3
ΔB7-H6_S3#23-SEED-PGLALA (bispecific antibody, part only; not given: SEED Fc chains and hu225 Fab, part only) chain, part: DLKVEMMAGGTQITPLNDNVTIFCNIFYSQPLNITEMGITWFWKSLTFDKEVKVFEFYGDHQEAFRPGAIVSPWRLKSGDASLRLPGIQLEEAGEYRCEVVVTPYKAQGTVQLEVVASPAS    3.7
ΔB7-H6_S3#26-SEED-PGLALA (bispecific antibody, part only; not given: SEED Fc chains and hu225 Fab, part only) chain, part: DLKVEMMAGGTQITPLNDNVTIFCNIFYSQPLNITTMGITWFWKSLTFDKEVKVFEFWDDHQEAFRPGAIVSPWRLKSGDASLRLPGIQLEEAGEYRCEVVVTPYKAQGTVQLEVVASPAS    3.6
ΔB7-H6_S3#27-SEED-PGLALA (bispecific antibody, part only; not given: SEED Fc chains and hu225 EGFR Fab, part only) chain, part: DLKVEMMAGGTQITPLNDNVTIFCNIFYSQPLNITTMGITWFWKSLTFDKEVKVFEFWGDHQEAFRPGAIVSPWRLKSGDASLRLPGIQLEEAGEYRCEVIVTPYKAQGTVQLEVVASPAS    4.9
ΔB7-H6_S3#9-SEED-PGLALA (bispecific antibody, part only; not given: SEED Fc chains and hu225 EGFR Fab, part only) chain, part: DLKVEMMAGGTQITPLNDNVTIFCNIFYSQPLNITHMGITWFWKSLTFDKEVKVFEFFGDHQEAFRPGAIVSPWRLKSGDASLRLPGIQLEEAGEYRCEVVVTPYKAQGTVQLEVVASPAS    7.1
ΔB7-H6_S3#28-SEED-PGLALA (bispecific antibody, part only; not given: SEED Fc chains and hu225 EGFR Fab, part only) chain, part: DLKVEMMAGGTQITPLNDNVTIFCNIFYSQPLNITHMGITWFWKSLTFDKEVKVFEFWGDHQEAFRPGAIVSPWRLKSGDASLRLPGIQLEEAGEYRCEVVVTPLKAQGTVQLEVVASPAS    0.9

For ΔB7-H6_S3#17-SEED-PGLALA (bispecific antibody, part only; not given: SEED Fc chains and hu225 EGFR Fab, part only) chain, part: DLKVEMMAGGTQITPLNDNVTIFCNIFYSQPLNITSMGITWFWKSLTFDKEVKVFEFYGDHQEAFRPGAIVSPWRLKSGDASLRLPGIQLEEAGEYRCEVFVTPLKAQGTVQLEVVASPAS , write its x-fold KD improvement.
6.9

State its x-fold KD improvement: ΔB7-H6_S2#13-SEED-PGLALA (bispecific antibody, part only; not given: SEED Fc chains and hu225 Fab, part only) chain, part: DLKVEMMAGGTQITPLNDNVTIFCNIFYSQPLNITSMGITWFWKSLTFDKEVKVFEFWGDHQEAFRPGAIVSPWRLKSGDASLRLPGIQLEEAGEYRCEVVVTPYKAQGTVQLEVVASPAS
2

Entry ΔB7-H6_S3#3-SEED-PGLALA (bispecific antibody, part only; not given: SEED Fc chains and hu225 Fab, part only) chain, part: DLKVEMMAGGTQITPLNDNVTIFCNIFYSQPLNITHMGITWFWKSLTFDKEVKVFEFFGDHQEAFRPGAIVSPWRLKSGDASLRLPGIQLEEAGEYRCEVFVTPYKAQGTVQLEVVASPAS needs its x-fold KD improvement filled in; supply it.
3.9

Provide only the value of recorded x-fold KD improvement for ΔB7-H6_S3#21-SEED-PGLALA (bispecific antibody, part only; not given: SEED Fc chains and hu225 Fab, part only) chain, part: DLKVEMMAGGTQITPLNDNVTIFCNIFYSQPLNITLMGITWFWKSLTFDKEVKVFEFWGDHQEAFRPGAIVSPWRLKSGDASLRLPGIQLEEAGEYRCEVVVTPYKAQGTVQLEVVASPAS
22.8

Input ΔB7-H6_S3#18-SEED-PGLALA (bispecific antibody, part only; not given: SEED Fc chains and hu225 Fab, part only) chain, part: DLKVEMMAGGTQITPLNDNVTIFCNIFYSQPLNITYMGITWFWKSLTFDKEVKVFEFWGDHQEAFRPGAIVSPWRLKSGDASLRLPGIQLEEAGEYRCEVVVTPYKAQGTVQLEVVASPAS , output reported x-fold KD improvement.
45.1

Quick one: give measured x-fold KD improvement for ΔB7-H6_S2#1-SEED-PGLALA (bispecific antibody, part only; not given: SEED Fc chains and hu225 EGFR Fab, part only) chain, part: DLKVEMMAGGTQITPLNDNVTIFCNIFYSQPLNITSMGITWFWKSLTFDKEVKVFEFYGDHQEAFRPGAIVSPWRLKSGDASLRLPGIQLEEAGEYRCEVVVTPYKAQGTVQLEVVASPAS
2

Provide one value: measured x-fold KD improvement of ΔB7-H6_S3#7-SEED-PGLALA (bispecific antibody, part only; not given: SEED Fc chains and hu225 Fab, part only) chain, part: DLKVEMMAGGTQITPLNDNVTIFCNIFYSQPLNITHMGITWFWKSLTFDKEVKVFEFYGDHQEAFRPGAIVSPWRLKSGDASLRLPGIQLEEAGEYRCEVVVTPYKAQGTVQLEVVASPAS
3.7
